All figures here come from ChEMBL document CHEMBL1201862.

System: MCF7
measurement_description: NCI tumour cell line growth inhibition, 48 h
Active and inactive are the calls of the source. Rule as the data show it: active = GI50 up to about 1.1 µM and inactive = higher.
Form entry, call: pick from active, inactive

[ask] GET /call?item= "Cc1c(CCCl)c(Cl)n2c(nc3ccccc32)c1C#N" returns the recorded outcome of this test.
[reply] active

[ask] I'd appreciate the recorded outcome for "CC(=O)c1c2c(c3ccccc3c1O)O[C@@H]1OCC[C@H]21" from this test.
[reply] inactive

[ask] Fill in: this test's call for C[C@@H]1CCC2[C@@H](C)[C@@H](O[C@H]3O[C@@H]4O[C@@]5(C)CCC6[C@H](C)CCC([C@H]3C)[C@]64OO5)O[C@@H]3O[C@@]4(C)CCC1[C@@]23OO4 (stereo partly specified) is ___
[reply] inactive

[ask] Query: recorded result category for CCc1ccc2c(c1)CC1(C2)Cc2cc3c(cc2C1)C(=O)CC3 (stereo unspecified) in this test
[reply] inactive

[ask] # lookup: test call for "CCOC(=O)/C(C#N)=C/c1ccc(SCc2ccco2)c([N+](=O)[O-])c1"
[reply] inactive

[ask] For this compound, state the assay outcome: "CC(C)(C)OC(=O)N(CCCCN(CCCNC(=O)C(F)(F)F)C(=O)OC(C)(C)C)CCCNC(=O)C(F)(F)F"
[reply] inactive

[ask] Tell me the assay call for CCCCCCCCCCCCCCCCCCNC(=O)C(N)Cc1ccc(OCc2ccccc2)cn1 (stereo unspecified) please.
[reply] inactive

[ask] Record request — test call for "C1CC2=C(C1)[Se]C(=C1Sc3nsnc3S1)[Se]2"
[reply] inactive

[ask] Recorded call for "O=C(Nc1cnc(O)nc1O)Oc1ccccc1" ?
[reply] inactive

[ask] Kindly provide the recorded test outcome for the following compound: "O=C(NCCCN(CCCCN(CCCNC(=O)C(F)(F)F)Cc1ccccc1)Cc1ccccc1)C(F)(F)F"
[reply] inactive

[ask] // return assay outcome for CC1CC/C(=C\c2ccc(Cl)cc2)C2OC(N)=C(C#N)C(c3ccc(Cl)cc3)=C12 (stereo unspecified)
[reply] inactive

[ask] Can you look up the reported call for "CCc1nc(N)nc(N)c1-c1ccc([N+](=O)[O-])c(NCc2ccccc2)c1" for me?
[reply] inactive

[ask] Kindly provide the recorded test outcome for the following compound: "CCOC(=O)c1c(SC(=O)c2ccc(OC)cc2)n(-c2ccccc2)c(=S)n(-c2ccccc2)c1=O"
[reply] inactive

[ask] Please let me know the test result on file for CCOC(=O)/C(C#N)=C/c1ccc2c(c1)CC1(C2)Cc2cc(CC)c(C(C)O)cc2C1 (stereo unspecified) .
[reply] inactive

[ask] Name the outcome recorded for "Cc1cc(C)n2c(nc3ccccc32)c1C#N" in the assay.
[reply] inactive

[ask] Call for entry NC(CC1=CCC=CC1)C(=O)O (stereo unspecified) :
[reply] inactive
